In this section, each of the binders is paired with its reported ELISA signal.
target: T1, Recombinant Human DLL4 (human, UniProt Q9NR61 27-524); test: ELISA on plate-coated DLL4, Fab at 6.67 nM (3-fold serial dilution)
T1 construct: Bought recombinant human DLL4 (R&D Systems 1506-D4/CF); also called delta-like protein 4; rHuman DLL4
Please respond with just the number, no unit label.

{"binder": "Fab VH1-46_IGHD6-6*01_IGHJ1*01 S102A/S103P/S104F/H111F I51V/N52L/S54T/G56H & L6_IGKJ1*01 S28N/S30D/S31H S52L/A55G (Fab, V domains shown, Fab expressed in E. coli: VH joined to CH1 from Plasmid A (His6 and Flag tags), VL joined to kappa CL from Plasmid C; also called H:APFF VLTH & L:NDH LG) VH: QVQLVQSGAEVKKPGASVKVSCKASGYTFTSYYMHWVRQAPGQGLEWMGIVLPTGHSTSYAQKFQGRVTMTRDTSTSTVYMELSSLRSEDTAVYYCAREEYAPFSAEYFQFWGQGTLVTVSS VL: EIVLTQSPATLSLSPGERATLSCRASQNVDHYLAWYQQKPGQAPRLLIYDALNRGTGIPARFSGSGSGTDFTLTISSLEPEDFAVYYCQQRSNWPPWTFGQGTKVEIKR", "ELISA signal": 0.916}
{"binder": "Fab VH1-46_IGHD6-6*01_IGHJ1*01 S102A/S103P/S104F/H111F N52L/S54T/G56H & L6_IGKJ1*01 S28N/S30D/S31H S52L/A55S (Fab, V domains shown, Fab expressed in E. coli: VH joined to CH1 from Plasmid A (His6 and Flag tags), VL joined to kappa CL from Plasmid C; also called H:APFF LTH & L:NDH LS) VH: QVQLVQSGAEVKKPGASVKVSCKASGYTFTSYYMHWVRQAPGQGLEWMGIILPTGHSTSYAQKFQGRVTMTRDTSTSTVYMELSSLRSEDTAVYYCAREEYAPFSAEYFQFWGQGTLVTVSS VL: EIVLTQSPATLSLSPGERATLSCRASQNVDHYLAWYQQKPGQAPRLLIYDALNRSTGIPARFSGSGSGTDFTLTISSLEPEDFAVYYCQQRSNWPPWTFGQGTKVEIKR", "ELISA signal": 0.916}
{"binder": "Fab VH1-46_IGHD6-6*01_IGHJ1*01 S102A/S103P/S104F/H111F N52L/S54T/G56H & L6_IGKJ1*01 S28N/S30D/S31H S52L/A55G (Fab, V domains shown, Fab expressed in E. coli: VH joined to CH1 from Plasmid A (His6 and Flag tags), VL joined to kappa CL from Plasmid C; also called H:APFF LTH & L:NDH LG) VH: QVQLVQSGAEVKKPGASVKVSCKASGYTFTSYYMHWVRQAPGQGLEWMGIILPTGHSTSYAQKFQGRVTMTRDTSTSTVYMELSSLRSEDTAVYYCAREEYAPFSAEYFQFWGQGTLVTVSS VL: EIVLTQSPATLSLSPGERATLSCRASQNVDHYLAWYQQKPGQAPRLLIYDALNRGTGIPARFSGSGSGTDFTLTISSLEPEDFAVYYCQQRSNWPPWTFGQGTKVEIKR", "ELISA signal": 0.88}
{"binder": "Fab VH1-46_IGHD6-6*01_IGHJ1*01 S102A/S103P/S104F/H111F I51A/N52L/S54T/G56H & L6_IGKJ1*01 S28N/S30D/S31H (Fab, V domains shown, Fab expressed in E. coli: VH joined to CH1 from Plasmid A (His6 and Flag tags), VL joined to kappa CL from Plasmid C; also called H:APFF ALTH & L:NDH) VH: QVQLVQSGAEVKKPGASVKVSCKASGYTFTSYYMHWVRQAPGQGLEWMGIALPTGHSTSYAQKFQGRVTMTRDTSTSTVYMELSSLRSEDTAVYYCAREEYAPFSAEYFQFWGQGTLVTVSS VL: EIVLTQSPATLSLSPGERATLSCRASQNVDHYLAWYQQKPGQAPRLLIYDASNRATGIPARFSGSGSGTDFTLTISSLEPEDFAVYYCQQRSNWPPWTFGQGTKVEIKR", "ELISA signal": 0.232}

Moving on to the next binder.
Give the reported ELISA signal for this binder. Fab VH1-46_IGHD6-6*01_IGHJ1*01 S102A/S103P/S104F/H111F I51V/N52L/S54T/G56H & L6_IGKJ1*01 S28N/S30D/S31H S52L/A55S (Fab, V domains shown, Fab expressed in E. coli: VH joined to CH1 from Plasmid A (His6 and Flag tags), VL joined to kappa CL from Plasmid C; also called H:APFF VLTH & L:NDH LS) VH: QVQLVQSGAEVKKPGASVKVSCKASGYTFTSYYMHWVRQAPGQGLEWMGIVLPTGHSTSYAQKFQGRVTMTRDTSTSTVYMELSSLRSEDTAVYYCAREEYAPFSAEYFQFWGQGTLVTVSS VL: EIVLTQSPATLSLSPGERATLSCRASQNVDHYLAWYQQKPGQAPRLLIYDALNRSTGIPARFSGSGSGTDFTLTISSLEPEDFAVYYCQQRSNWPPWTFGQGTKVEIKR
0.747
